Substrate: PET
assay-procedure: Proxy for plastic degradation [HPLC-UV]
condition-description: pH 9; 40 °C; 24 h
What Proxy for plastic degradation was measured for each of the following?
Numbers only, in µM.

Known Proxy for plastic degradation results, listed for orientation:
1) unnamed (protein) MNFPRASRLMQAAVLGGLMAVSAAATAQTNPYARGPNPTAASLEASAGPFTVRSFTVSRPSGYGAGTVYYPTNAGGTVGAIAIVPGYTARQSSIKWWGPRLASHGFVVITIDTNSTLDQPESRSSQQMAALRQVASLNGTSSSPIYGKVDTARMGVMGWSMGGGGSLISAANNPSLKAAAAQAPWHSSTNFSSVTVPTLIFACENDSIAPVNSSALPIYDSMSRNAKQFLEINGGSHSCANSGNSNQALIGKKGVAWMKRFMDNDTRYSTFACENPNSTRVSDFRTANCS	13.9
2) unnamed (protein) MNFPRASRLMQAAVLGGLMAVSAAATAQTNPYARGPNPTAASLEASAGPFTVRSFTVSRPSGYGAGTVYYPTNAGGTVGAIAIVPGYTARQSSIKWWGPRLASHGFVVITIDTNSTLDQPSSRSSQQMAALRQVASLNGTSSSPIYGKVDTARMGVMGWSMGGGGSLISAANNPSLKAAAPQAPWISSTNFSSVTVPTLIFACENDSIAPVNSSALPIYDSMSRNAKQFLEINGGSHSCANSGNSNQALIGKKGVAWMKRFMDNDTRYSTFACENPNSTRVSDFRTANCS	1.2
3) unnamed (protein) MNFPRASRLMQAAVLGGLMAVSAAATAQTNPYARGPNPTAASLEASAGPFTVRSFTVSRPSGYGAGTVYYPTNAGGTVGAIAIVPGYTARQSSIKWWGPRLASHGFVVITIDTNSTLDQPSSRSSQQMAALRQVASLNGTSSSPIYGKVDTARMGVMGWSMGGGGSLISAANNPSLKAAAAQAPWDSSTNFSSVTVPTLIFACENDSIAPVNSSALPIYDSMSRNAKQFLEINGGSHSCANSGNSNQALIGKKGVAWMKRFMDNDTRYSTFACENPNSTRVSDFRTANCS	7.5

Now, please, on to the next protein.
**Query** Proxy for plastic degradation for unnamed (protein) MNFPRASRLMQAAVLGGLMAVSAAATAQTNPYARGPNPTAASLEASAGPFTVRSFTVSRPSGYGAGTVYYPTNAGGTVGAIAIVPGYTARQSSIKWWGPRLASHGFVVITIDTNSTLDQPDSRSSQQMAALRQVASLNGTSSSPIYGKVDTARMGVMGWSMGGGGSLISAANNPSLKAAAPQAPWDSSTNFSSVTVPTLIFACENDSIAPVNSSALPIYDSMSRNAKQFLEINGGSHSCANSGNSNQALIGKKGVAWMKRFMDNDTRYSTFACENPNSTRVSDFRTANCS ?
**Result** 2.6
